- MEASUREMENT_TARGET: human GPR17 short isoform (Homo sapiens, UniProt Q13304)
- Sequence (Q13304 29-367): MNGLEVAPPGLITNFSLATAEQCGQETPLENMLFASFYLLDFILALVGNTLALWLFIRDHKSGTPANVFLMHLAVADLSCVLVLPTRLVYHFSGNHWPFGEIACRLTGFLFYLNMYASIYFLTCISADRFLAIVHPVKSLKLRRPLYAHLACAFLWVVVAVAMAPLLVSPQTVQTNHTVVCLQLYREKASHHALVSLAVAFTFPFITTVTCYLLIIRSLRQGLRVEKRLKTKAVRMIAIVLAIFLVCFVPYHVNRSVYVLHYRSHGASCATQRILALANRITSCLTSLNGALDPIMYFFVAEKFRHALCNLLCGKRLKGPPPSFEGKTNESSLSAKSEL
- ASSAY_EXPLANATION: GPR17 cAMP assay (antagonist mode, TR-FRET cAMP detection)
- APPLIED_CONDITIONS: CHO-K1 cells stably expressing human GPR17 short isoform; with EC80 concentration of agonist MDL29,951, IBMX 0.5mM, forskolin 15µM; normalized to reference antagonist; read-out: hGPR17 cAMP IC50
pIC50: −log10 of the molar value.
The following compounds are listed with their measured pIC50 values.
ENDPOINT_LABEL: pIC50

[2H]C([2H])(c1cnc(NS(=O)(=O)c2c[nH]c3c(-n4cccn4)c(Cl)ccc23)nc1OC)C(F)F = 7.39
COc1nc(NS(=O)(=O)c2c[nH]c3c(-n4cccn4)c(C(F)F)ccc23)nc(OC)c1OC(F)F = 6.97
COc1nc(NS(=O)(=O)c2c[nH]c3c(-n4nccn4)c(Cl)ccc23)nc(OC)c1OCC(F)F = 7.49
COc1nc(NS(=O)(=O)c2c[nH]c3c(-n4cccn4)c(C(F)F)ccc23)nc(OC)c1OCC(F)F = 7.19

====

- MEASUREMENT_TARGET: human GPR17 short isoform (Homo sapiens, UniProt Q13304)
- ASSAY_EXPLANATION: GPR17 cAMP assay (antagonist mode, TR-FRET cAMP detection)
- APPLIED_CONDITIONS: CHO-K1 cells stably expressing human GPR17 short isoform; with EC80 concentration of agonist MDL29,951, IBMX 0.5mM, forskolin 15µM; normalized to reference antagonist; read-out: hGPR17 cAMP IC50
pIC50: −log10 of the molar value.
The following molecules are listed with their measured pIC50 values.
ENDPOINT_LABEL: pIC50

[2H]C([2H])(c1cnc(NS(=O)(=O)c2c[nH]c3c(-n4nccn4)c(Cl)ccc23)nc1OC)C(F)F = 7.44
COc1nc(NS(=O)(=O)c2c[nH]c3c(-n4nccn4)c(Cl)c(F)cc23)nc(OC)c1OCC(F)F = 7.12
COc1nc(NS(=O)(=O)c2c[nH]c3c(-n4nccn4)c(Cl)ccc23)ncc1CC(F)F = 7.26
COc1nc(NS(=O)(=O)c2c[nH]c3c(-n4cccn4)c(Br)ccc23)nc(OC)c1OCC(F)F = 7.38
COc1nc(NS(=O)(=O)c2c[nH]c3c(-n4nccn4)c(F)ccc23)nc(OC)c1C1CC1C#N (stereo not shown) = 7.09
COc1nc(NS(=O)(=O)c2c[nH]c3c(-n4nccn4)c(F)ccc23)nc(OC)c1OCCF = 6.85
COc1nc(NS(=O)(=O)c2c[nH]c3c(-n4cc(F)cn4)c(Cl)ccc23)nc(OC)c1OCC(F)F = 7.60

====

The following compounds are listed with their measured IC50 values.
- MEASUREMENT_TARGET: human GPR17 short isoform (Homo sapiens, UniProt Q13304)
- ASSAY_EXPLANATION: GPR17 cAMP assay (antagonist mode, TR-FRET cAMP detection)
- APPLIED_CONDITIONS: CHO-K1 cells stably expressing human GPR17 short isoform; with EC80 concentration of agonist MDL29,951, IBMX 0.5mM, forskolin 15µM; normalized to reference antagonist; read-out: hGPR17 cAMP IC50
ENDPOINT_LABEL: IC50 (nM)

COc1nc(NS(=O)(=O)c2c[nH]c3c(-n4cccn4)c(Cl)ccc23)nc(OC)c1CCC#N = 37
COc1nc(NS(=O)(=O)c2c[nH]c3c(-n4cccn4)c(Cl)ccc23)nc(OC)c1C1CC1C#N (stereo not shown) = 41
COc1nc(NS(=O)(=O)c2c[nH]c3c(-n4ccnc4)c(Cl)ccc23)nc(OC)c1OCC(F)F = 50
COc1nc(NS(=O)(=O)c2c[nH]c3c(-n4nccn4)c(C)ccc23)nc(OC)c1OCCF = 35
COc1nc(NS(=O)(=O)c2c[nH]c3c(-n4nccn4)c(Cl)ccc23)nc(OC)c1CC(F)F = 21
COc1nc(NS(=O)(=O)c2c[nH]c3c(-n4nccn4)c(Cl)ccc23)nc(OC)c1CCC(F)F = 24
COc1nc(NS(=O)(=O)c2c[nH]c3c(-n4nccn4)c(Br)ccc23)nc(OC)c1C1CC1C#N (stereo not shown) = 30
